Reported values of pKi for individual entries
Target: Dimer of Gag-Pol polyprotein [489-587] (Human immunodeficiency virus 1)
Construct: 489-587
Assay: Protease Inhibition Assay
Conditions: pH 5; 22 °C
pKi: −log10 of the molar value.
endpoint_name: pKi

{"compound": "CCCC1(CCc2ccccc2)CC(=O)C(C(c2cccc(NS(=O)(=O)c3ccc(N)cn3)c2)C(C)(C)C)C(=O)O1 (configuration not stated)", "reported": 9.70}
{"compound": "CCCC1(CCc2ccccc2)CC(=O)C(C(CC)c2cccc(NS(=O)(=O)c3ccc(C#N)cn3)c2)C(=O)O1 (configuration not stated)", "reported": 10.00}
